# Tested on: Lewis rats
# procedure text: Antigenicity and cross-reactivity in rats inoculated with marker-KLH conjugates, serum ELISA (Example 7)
# Type: in vivo, rat
# setup conditions: Table 4; N = 3; rats inoculated with marker-KLH conjugate; ELISA against RBM1; ** P < .01
Ends that are not written are not given here.
property label: Relative Absorbance ±SE at 405 nm, Candidate Marker RBM1

substance | target system | val
HWRWRMRMHWRWRMRM [RBM6] | Lewis rats | .12 ± .03
EGVYVPV [RBM5, peptide derived from the 5→3 reading of the cDNA encoding angiotensin II; T3 prints Glu-Gly-Val-Tyr-Val-His-Pro-Val] | Lewis rats | .57 ± .25
YFMYRRYFMYRR [RBM1] | Lewis rats | .55 ± .15**
RLAHMYVGKT [RBM4, antisense peptide from angiotensin II complementary DNA, 3→5 direction; KLH conjugate for inoculation] | Lewis rats | .21 ± .06

---

# Test system: rats
# procedure text: Antigenicity in rats inoculated with free marker peptides, serum ELISA (Example 8)
# Format: in vivo, rat
# setup conditions: Table 5; rats inoculated with free peptide; ELISA against RBM4
Ends that are not written are not given here.
property label: Candidate Marker Antibody Reactivity RBM4

biopolymer sequence | val
WPHDMCWP [RBM7] | −.12
HWRWRMRMHWRWRMRM [RBM6] | −.06
YFMYRRYFMYRR [RBM1] | −.04
HRNYFHRNYF [RBM2] | −.01

---

# System: Lewis rats
# procedure text: Antigenicity and cross-reactivity in rats inoculated with marker-KLH conjugates, serum ELISA (Example 7)
# Type: in vivo, rat
# setup conditions: Table 4; N = 3; rats inoculated with marker-KLH conjugate; ELISA against RBM5; ** P < .01
Ends that are not written are not given here.
property label: Relative Absorbance ±SE at 405 nm, Candidate Marker RBM5

substance | val
HWRWRMRMHWRWRMRM [RBM6] | −07 ± .15
YFMYRRYFMYRR [RBM1] | .11 ± .05
RLAHMYVGKT [RBM4, antisense peptide from angiotensin II complementary DNA, 3→5 direction; KLH conjugate for inoculation] | .24 ± .23
EGVYVPV [RBM5, peptide derived from the 5→3 reading of the cDNA encoding angiotensin II; T3 prints Glu-Gly-Val-Tyr-Val-His-Pro-Val] | 1.5 ± .44**
